Measured IC50 by item
# EXPERIMENTAL TARGET: FL_Reg1 (full-length human Regnase-1) phosphorylation by IKKβ (Homo sapiens)
# Construct: made in house; host or cells: Expi293 cells
# Sequence (Q5D1E8 1-599): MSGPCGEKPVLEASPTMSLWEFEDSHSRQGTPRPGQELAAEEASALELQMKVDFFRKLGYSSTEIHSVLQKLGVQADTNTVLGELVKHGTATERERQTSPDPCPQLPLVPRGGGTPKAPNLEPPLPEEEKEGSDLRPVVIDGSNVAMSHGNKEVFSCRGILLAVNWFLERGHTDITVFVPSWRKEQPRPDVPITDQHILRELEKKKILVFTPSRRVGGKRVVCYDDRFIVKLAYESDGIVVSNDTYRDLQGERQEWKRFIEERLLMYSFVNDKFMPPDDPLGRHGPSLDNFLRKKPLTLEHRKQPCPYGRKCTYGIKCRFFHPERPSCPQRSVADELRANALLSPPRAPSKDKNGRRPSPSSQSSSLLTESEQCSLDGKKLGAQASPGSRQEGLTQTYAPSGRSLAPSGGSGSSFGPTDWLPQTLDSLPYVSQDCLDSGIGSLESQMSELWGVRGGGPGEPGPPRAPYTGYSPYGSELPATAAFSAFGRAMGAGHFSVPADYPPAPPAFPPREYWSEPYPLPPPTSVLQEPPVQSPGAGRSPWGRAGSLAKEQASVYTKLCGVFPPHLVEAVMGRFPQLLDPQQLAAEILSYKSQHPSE
# PROCEDURE SUMMARY: Regnase-1 phosphorylation inhibition by compounds (AlphaScreen), IKKβ, full-length Regnase-1
# Format: biochemical
# CONDITION LABEL: Table 11; 2 nM Regnase-1; AlphaScreen; read-out: 50% inhibition concentration, Regnase-1 phosphorylation, FL_Reg1, IKKβ
Residues, ends and D or L forms follow the SMILES beside them.
Output spec: scalar in µM, unitless text.

Would you please look over these solved cases?
CC(C)[C@@H]1NC(=O)[C@H](CCCCN)NC(=O)[C@H](Cc2ccc(O)cc2)NC(=O)[C@H](Cc2c[nH]c3ccccc23)NC(=O)[C@H](CO)NC(=O)[C@H]([C@@H](C)O)NC(=O)[C@H](C)N(C)C(=O)C[C@@H](C(=O)N2CCCC2)NC(=O)[C@H](CCC(N)=O)NC(=O)CNC(=O)[C@H](Cc2c[nH]c3ccccc23)NC(=O)[C@H](CC(N)=O)NC1=O [PP1] (HELM PEPTIDE1{[meA].T.S.W.Y.K.V.N.W.G.Q.D.[C1CCN([*:1])C1]}$PEPTIDE1,PEPTIDE1,1:R1-12:R3$$$V2.0); 28.1
CC[C@H](C)[C@@H]1NC(=O)[C@H](Cc2ccc(O)cc2)NC(=O)[C@H](C)N(C)C(=O)C[C@@H](C(=O)N2CCCC2)NC(=O)[C@H](CC(C)C)NC(=O)[C@H](CC(=O)O)NC(=O)CNC(=O)[C@H](Cc2ccccc2)NC(=O)[C@H](Cc2ccccc2)NC(=O)[C@H](CC(=O)O)NC(=O)[C@H](Cc2c[nH]c3ccccc23)NC1=O [PP4] (HELM PEPTIDE1{[meA].Y.I.W.D.F.F.G.D.L.D.[C1CCN([*:1])C1]}$PEPTIDE1,PEPTIDE1,1:R1-11:R3$$$V2.0); 19.5
CC[C@H](C)[C@@H]1NC(=O)[C@H](CC(N)=O)NC(=O)[C@H](Cc2ccc(O)cc2)NC(=O)[C@H](Cc2c[nH]c3ccccc23)NC(=O)[C@H](CO)NC(=O)[C@H](CC(N)=O)NC(=O)[C@H](C)NC(=O)[C@H](Cc2ccc(O)cc2)NC(=O)CNC(=O)[C@H](C)N(C)C(=O)C[C@@H](C(=O)N2CCCC2)NC(=O)[C@H](Cc2c[nH]c3ccccc23)NC1=O [PP2] (HELM PEPTIDE1{[meA].G.Y.A.N.S.W.Y.N.I.W.D.[C1CCN([*:1])C1]}$PEPTIDE1,PEPTIDE1,1:R1-12:R3$$$V2.0); 16.6

Next, consider the following molecule.
Sure, the documented IC50 for CC[C@H](C)[C@@H]1NC(=O)[C@H](CCCCN)NC(=O)[C@H](Cc2ccccc2)NC(=O)[C@H](Cc2c[nH]c3ccccc23)NC(=O)[C@H](CO)NC(=O)[C@H](CO)NC(=O)[C@H](CC(N)=O)NC(=O)[C@@H]2CCCN2C(=O)[C@@H](C)N(C)C(=O)C[C@@H](C(=O)N2CCCC2)NC(=O)[C@H](Cc2c[nH]c3ccccc23)NC1=O [PP6] (HELM PEPTIDE1{[C[C@H](C(=O)[*:2])N(C)[*:1]].P.N.S.S.W.F.K.I.W.D.[C1CCN([*:1])C1]}$PEPTIDE1,PEPTIDE1,1:R1-11:R3$$$V2.0) is 17
